For each record, write down the corresponding IFN-gamma release in MLR at 1 µg/ml, % of IL-2 control.
Target: human TIM-3 on cells (human, UniProt Q8TDQ0 22-301)
Assay: cell-based or functional assay
Please give a number only; it is taken to be in %.

# IFN-gamma release in MLR at 1 µg/ml, % of IL-2 control (binder: Tim3_0026 (antibody, V domains shown) VH: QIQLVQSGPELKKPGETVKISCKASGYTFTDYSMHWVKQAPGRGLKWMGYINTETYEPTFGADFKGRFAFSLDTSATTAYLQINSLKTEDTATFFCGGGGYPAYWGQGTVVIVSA VL: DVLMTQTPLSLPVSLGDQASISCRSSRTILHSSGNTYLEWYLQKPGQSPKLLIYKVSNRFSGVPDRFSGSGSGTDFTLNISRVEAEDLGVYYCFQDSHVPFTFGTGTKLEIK ) is 18

IFN-gamma release in MLR at 1 µg/ml, % of IL-2 control reading for Tim3_0028 (antibody, V domains shown) VH: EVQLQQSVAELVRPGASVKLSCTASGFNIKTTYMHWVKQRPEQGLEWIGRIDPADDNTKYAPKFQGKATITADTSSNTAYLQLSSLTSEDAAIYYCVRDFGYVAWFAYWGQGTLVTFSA VL: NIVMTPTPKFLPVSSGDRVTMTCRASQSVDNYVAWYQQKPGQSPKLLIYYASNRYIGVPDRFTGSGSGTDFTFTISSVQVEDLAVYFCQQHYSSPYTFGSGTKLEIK : 12

Memo: Tim3_0030 (antibody, V domains shown) VH: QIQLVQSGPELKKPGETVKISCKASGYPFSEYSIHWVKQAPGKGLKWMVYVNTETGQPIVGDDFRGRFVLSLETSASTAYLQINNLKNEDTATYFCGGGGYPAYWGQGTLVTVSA VL: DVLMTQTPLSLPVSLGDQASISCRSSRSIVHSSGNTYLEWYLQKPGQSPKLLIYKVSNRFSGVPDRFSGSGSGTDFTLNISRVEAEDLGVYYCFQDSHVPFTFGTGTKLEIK , reported IFN-gamma release in MLR at 1 µg/ml, % of IL-2 control: 3
